- system-tested: T1, Human BCMA (human, UniProt Q02223 1-54, limits assumed)
- T1 construct: Soluble analyte in SPR; construct not described; also called huBCMA; B-cell maturation antigen
- T1 sequence (looked up): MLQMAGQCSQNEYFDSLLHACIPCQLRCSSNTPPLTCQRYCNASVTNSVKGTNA
- method-summary: SPR, IgG immobilised, 37 C

{"columns": ["binder", "kon [M⁻¹ s⁻¹]"],
 "data": [
  ["L3.PY/L1.AH/H3.AE (antibody, V domains shown, IgG) VH: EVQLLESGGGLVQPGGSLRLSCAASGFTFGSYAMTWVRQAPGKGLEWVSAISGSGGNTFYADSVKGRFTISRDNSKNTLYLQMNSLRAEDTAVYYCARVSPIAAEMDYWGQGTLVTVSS VL: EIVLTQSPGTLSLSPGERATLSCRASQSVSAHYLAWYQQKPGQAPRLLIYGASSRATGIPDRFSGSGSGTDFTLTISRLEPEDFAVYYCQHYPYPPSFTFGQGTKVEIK", "3.32e+06"],
  ["L3.PY/L1.PH/H2.QR (antibody, V domains shown, IgG) VH: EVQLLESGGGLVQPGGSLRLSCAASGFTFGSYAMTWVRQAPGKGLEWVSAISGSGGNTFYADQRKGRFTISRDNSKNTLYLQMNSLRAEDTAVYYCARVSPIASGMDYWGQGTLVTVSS VL: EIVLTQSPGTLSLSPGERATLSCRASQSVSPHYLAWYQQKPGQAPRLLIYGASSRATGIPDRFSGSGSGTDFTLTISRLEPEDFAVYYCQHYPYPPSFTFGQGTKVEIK", "3.69e+06"],
  ["L3.PY/L1.PS/H3.YA (antibody, V domains shown, IgG) VH: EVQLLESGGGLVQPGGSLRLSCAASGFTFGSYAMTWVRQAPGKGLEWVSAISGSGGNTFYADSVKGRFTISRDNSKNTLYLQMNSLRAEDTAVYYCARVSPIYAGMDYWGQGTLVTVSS VL: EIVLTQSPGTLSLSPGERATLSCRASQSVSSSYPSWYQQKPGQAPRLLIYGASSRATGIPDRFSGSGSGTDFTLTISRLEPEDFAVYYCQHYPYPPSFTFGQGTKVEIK", "3.07e+06"],
  ["L3.PY/L1.AH/H3.TAQ (antibody, V domains shown, IgG) VH: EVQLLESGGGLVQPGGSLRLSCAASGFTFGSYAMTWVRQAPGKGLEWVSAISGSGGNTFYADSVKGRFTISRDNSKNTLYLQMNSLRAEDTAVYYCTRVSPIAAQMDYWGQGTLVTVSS VL: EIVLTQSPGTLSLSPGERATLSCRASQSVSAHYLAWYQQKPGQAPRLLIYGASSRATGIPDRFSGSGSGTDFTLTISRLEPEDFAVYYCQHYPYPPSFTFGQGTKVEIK", "3.27e+06"],
  ["L3.PY/L1.PS/H2.YQ (antibody, V domains shown, IgG) VH: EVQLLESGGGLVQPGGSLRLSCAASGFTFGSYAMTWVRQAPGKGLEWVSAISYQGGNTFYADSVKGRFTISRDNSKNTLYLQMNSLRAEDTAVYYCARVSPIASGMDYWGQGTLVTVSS VL: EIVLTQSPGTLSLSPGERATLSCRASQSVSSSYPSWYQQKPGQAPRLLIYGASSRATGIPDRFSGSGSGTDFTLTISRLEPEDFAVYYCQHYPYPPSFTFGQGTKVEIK", "3.35e+06"]
]}
